Data provenance: the supplement of paper PMC11502859

// reported median enrichment per item
tested on: HEK293T; experiment: median enrichment of reporter reads in eGFP-reduced (low/intermediate) vs eGFP-high sorted cells (eGFP-extension fusion abundance) (ratio); higher = stronger loss of eGFP-fusion protein abundance (more destabilising extension);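 also: lentiviral eGFP-IRES-mCherry reporter pool sorted by FACS 96 h post-transduction, gated on mCherry-high cells, Illumina read counts normalized per million, median across four biological replicates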

Returns the measured median enrichment for the input sequence. Input: QAASWRFEDAAFGLDEFQILLACFLILICLYTYTLCTKLFLIHGLLNPQMWSPWIRKARCTLNDK [B2M]
11.1

Form field: reported median enrichment of SDARQFLDLGGLKRPPSCLLSFSVSSFLLVFFILFSFHQPSCILALQRDRDRSSAQGFSLPLFIMGGGYHPPSQSCEESGTSF [NOTCH3]
5.68

Quick one: median enrichment for EFFLELKHPRMPLHVFHSPHLQTSLLFLTRPESKLPSLGNSGEGVSCTTYHTPSHPVSDFGMDSGKLGPSLNRVMYLNVCYFQ [HSPA1L] ?
5.31
